Cited source: the DeepSol protein solubility set

assay: soluble on expression in E. coli; label from the status in PepcDB or PDB records
Observed property: soluble on expression in E. coli

MGSDKIHHHHHHMVIELKNEKVTVQFKEFGGALSSIKDQDGIEYLWQGNPAYWSSQAPVLFPICGSLRNDKGIYTSKKHSHRYGSIPRHGLVRKKNFRFEQLGKDSVVFTITPDKEMLMQYPYHFELKIIYTLKHTTIRTEYQVINKEKESIMPYFIGGHPGLNCPLFAGDRYEDYYLEFEKEETCTVPKSFPDTGLLDLQDRKIFLKGQKYLDLDYSLFTHDAITLDNLQSRSVSLRSKNHGGGLRLDFADFPYLILWSTANKSPFIALEPWSGLSTAVDESDYFEEKRNVSFVEPGQFDRNYFDITVL | not soluble
MGGSHHHHHHGMASALAAVDIRDNLLGISWVDSSWIPILNSGSVLDYFSERSNPFYDRTCNNEVVKMQRLTLEHLNQMVGIEYILLHAQEPILFIIRKQQRQSPAQVIPLADYYIIAGVIYQAPDLGSVINSRVLTAVHGIQSAFDEAMSYCRYHPSKGYWWHFKDHEEQDKVRPKAKRKEEPSSIFQRQRVDALLLDLRQKFPPKFVQLKPGEKPVPVDQTKKEAEPIPETVKPEEKETTKNVQQTVSAKGPPEKRMRLQ | not soluble

----------
assay: soluble on expression in E. coli; label from the status in PepcDB or PDB records
Observed property: soluble on expression in E. coli

Take a look at these entries with their results.
MGSDKIHHHHHHMTVQRREKGSSITRVLEIIEAISRAERPMSPAELAFLLDIPKPSIHRLLQQLEADNYVQINMRGLLVPGDRMHSIALGVLHSSRFKALRQAILKKLAETIGETCGIAIPDGIEMIYYDRVQTNWPLRVNLPVGSHTPVACTASGKLYLSSLPKERRHRIIGKLSLEKLARNTLIESESLEKELINIQANELGTDNEEFIDGMVACSVPIKDQDGKLFACLFTHAPVIRKSLDELLAFEPALRHAAIELGDLLKEQ | not soluble
MDFYDTDELRDFMALVEKTNDIKKIALFRILAFTGIRKGELLALEWKDYRKSTLDINKAISHSPVGYEILPPKANSNRLLSLDEKTCKILDELHQTYPESTRIFESENGGMLSPSKPRKWLLEITKEKEIEPIRIHAFRHTHASLLFESGMSLKQVQYRLGHADLKTTMNIYTHITKLEHHHHHH | not soluble
MGSDKIHHHHHHMTDISWEMNDQTIVRKTDKIARQDTLPDLTLKKVKQGDRMRFDAHVNVDSMAEGQHLKRVTIFSNVPGGGTWELISDEGVAVGGRGTAPSPQMYFAAGLGLCLMSHVEMLAKSGEFEITSARLEQRSTWTTTMDLGAVAPANIYGKGEHMQMNLIIESPEPTPKIAEFIAYCRQACMALQTVAAATPVATGLYLNGAHIGDVGGTGPFAKVA | not soluble
MWYQKTLTLSAKSRGFHLVTDEILNQLADMPRVNIGLLHLLLQHTSASLTLNENCDPTVRHDMECFFLRTVPDNGNYEHDYEGADDMPSHIKSSMLGTSLVLPVHKGRIQTGTWQGIWLGEHRIHGGSRRIIATLQGELEHHHHHH | not soluble
MAAEEATEFYLRYYVGHKGKFGHEFLEFEFREDGKLRYANNSNYKNDTIIRKEVFLTPAVLKECKRIVSESEILKEDDNNWPEPDRVGKQELEIVLGNEHISFATSKIGSLVDCQSSNDPEGLRIFYYLVQDLKCLVFSLISLHFKIKPILEHHHHHH | not soluble

// moving on: another record for soluble on expression in E. coli
Request: Provide soluble on expression in E. coli value for the following sequence: MGFHLRNSLALPPDTPAVKVQSAVQYSELAKLLRRGLKASGATLADEDAKTGFAQVQVLSERWGDLPIAIDSQGRAQEYSLRYAAIFTVTTANGAVLVPQQVIELSRDYVSPPVDATGTATEREILADELRKDMSASILRRIDSVVRARLKHGESLESTPTAPLPPAPVQPTTLPESSVPAALPPAPTSGNLEHHHHHH
Result: not soluble
